conditions: in ethanol, 298.15 K
Measured quantity: solubility (mole fraction)
Would you mind answering with just the numeric figure?

response.value for Nc1c(Cl)cc([N+](=O)[O-])cc1Cl (field: solubility (mole fraction)) = 0.00183

----------
settings: in NMP, 278.15 K
Measured quantity: solubility (mole fraction)
Write the number on its own, no unit after it.

Reported solubility (mole fraction) of Nc1c(Cl)cc([N+](=O)[O-])cc1Cl : 0.135

----------
settings: in ethyl acetate, 278.15 K
Measured quantity: solubility (mole fraction)
Just the number.

// recorded solubility (mole fraction) for Nc1c(Cl)cc([N+](=O)[O-])cc1Cl : 0.0085

----------
details: in cyclohexane, 298.15 K
Measured quantity: solubility (mole fraction)

GET /value?item= Nc1c(Cl)cc([N+](=O)[O-])cc1Cl &field=solubility (mole fraction) returns 0.000301

----------
conditions: in cyclohexane, 323.15 K
Measured quantity: solubility (mole fraction)
Lab note: record just the number, no unit beside it.

Short answer for Nc1c(Cl)cc([N+](=O)[O-])cc1Cl : solubility (mole fraction) was 0.000906

----------
settings: in n-propanol, 318.15 K
Measured quantity: solubility (mole fraction)
Write the number on its own, no unit after it.

solubility (mole fraction) for Nc1c(Cl)cc([N+](=O)[O-])cc1Cl is 0.00441

----------
conditions: in acetonitrile, 318.15 K
Measured quantity: solubility (mole fraction)
Just the number, please.

Measured solubility (mole fraction) of Nc1c(Cl)cc([N+](=O)[O-])cc1Cl : 0.00577

----------
conditions: in cyclohexane, 288.15 K
Measured quantity: solubility (mole fraction)
Please give the numeric answer without any surrounding text.

The measured solubility (mole fraction) associated with Nc1c(Cl)cc([N+](=O)[O-])cc1Cl reads 0.000185

----------
details: in ethanol, 303.15 K
Measured quantity: solubility (mole fraction)
The answer should be written as a number, with no unit following it.

The reported solubility (mole fraction) of the molecule Nc1c(Cl)cc([N+](=O)[O-])cc1Cl was 0.00222

----------
settings: in isopropanol, 288.15 K
Measured quantity: solubility (mole fraction)
Kindly provide the number alone.

Kindly note the recorded solubility (mole fraction) for Nc1c(Cl)cc([N+](=O)[O-])cc1Cl , which is 0.00111

----------
settings: in ethyl acetate, 298.15 K
Measured quantity: solubility (mole fraction)
Just the number.

Kindly note the recorded solubility (mole fraction) for Nc1c(Cl)cc([N+](=O)[O-])cc1Cl , which is 0.0153

----------
conditions: in isopropanol, 293.15 K
Measured quantity: solubility (mole fraction)
Lab note: write the figure by itself, no unit.

solubility (mole fraction) reported for this molecule Nc1c(Cl)cc([N+](=O)[O-])cc1Cl : 0.00133

----------
conditions: in n-propanol, 283.15 K
Measured quantity: solubility (mole fraction)
Reply with the value as a number alone.

Lab book: solubility (mole fraction) of Nc1c(Cl)cc([N+](=O)[O-])cc1Cl noted as 0.00123

----------
conditions: in water, 293.15 K
Measured quantity: solubility (mole fraction)
Number only, please.

So for Nc1c(Cl)cc([N+](=O)[O-])cc1Cl , the logged solubility (mole fraction) turned out to be 4.76e-06

----------
details: in cyclohexane, 293.15 K
Measured quantity: solubility (mole fraction)
Number only, no unit.

Briefly, solubility (mole fraction) measured for Nc1c(Cl)cc([N+](=O)[O-])cc1Cl : 0.000236

These measurements were taken from BigSolDB 2.1.
